# ASSAY TEXT: NCI Yeast Anticancer Drug Screen. Data for the mlh1 rad18 strain (AID 175)
# APPLIED CONDITIONS: S. cerevisiae mlh1 rad18 strain growth inhibition; at 50.0 µM; hits give high values
About 79,000 compounds went through this panel and 15% of them were active in at least one assay; those are over-represented in the sample as a whole.
MEASUREMENT TYPE: growth inhibition (%)
Expressed in %, but write only the number.

get_value(item= Cc1ccc2c(c1)sc(-c1ccc(N(C)C)cc1)[n+]2C , readout=growth inhibition) returns 90.5

get_value(item= CCOc1ccc(NC(=O)/C(=N\N)C(C(=O)OC)c2nc3ccc(Cl)cc3[nH]c2=O)cc1 (stereo unspecified) , readout=growth inhibition) returns -1.5

get_value(item= CCN1CCCC(Nc2cc(C)nc(/N=C(/N)Nc3ccc(Cl)c(Cl)c3)n2)C1 (stereo unspecified) , readout=growth inhibition) returns 83.2

get_value(item= CCCCCCCCCCCC[N+]1(CCCCCCCCCCCC)CCCC(C)C1 (stereo unspecified) , readout=growth inhibition) returns 88.7

get_value(item= CC/C(=C(/CC)c1ccc(O)cc1)c1ccc(O)cc1 , readout=growth inhibition) returns 99.2

get_value(item= C=[CH][Sn]([CH]=C)([O]c1cccc2cccnc12)[O]c1cccc2cccnc12 , readout=growth inhibition) returns 87.7

get_value(item= Cc1ccc(Nc2ccc(O)c3c2C(=O)c2c(O)ccc(Nc4ccc(C)cc4)c2C3=O)cc1 , readout=growth inhibition) returns 17.4

get_value(item= CC1=C(Cl)C[C@@H](/C(C)=C\Cl)O[C@@]1(O)C(Br)Br , readout=growth inhibition) returns 15.1

get_value(item= CC(=O)C1Cc2ccccc2C1=O (stereo unspecified) , readout=growth inhibition) returns 71.8

get_value(item= Cc1cc(O)c(O)c(C(C)(C)CC(C)(C)C)c1 , readout=growth inhibition) returns 91.2

get_value(item= O=[N+]([O-])C=C(c1ccccc1)c1ccccc1 , readout=growth inhibition) returns 93.2

get_value(item= COC(=O)c1cc([N+](=O)[O-])cc([N+](=O)[O-])c1Cl , readout=growth inhibition) returns 92.2

get_value(item= O=C(c1ccc(O)c(Br)c1)c1ccc(O)c(Br)c1 , readout=growth inhibition) returns 88

get_value(item= NC(=S)N/N=C/c1ncccc1O , readout=growth inhibition) returns 21.4

get_value(item= CN(C)c1ccc2cc3c(cc2c1)Oc1ccccc1N3.[Cl][Zn][Cl] , readout=growth inhibition) returns 83.3

get_value(item= Nc1cccc2cccc([N+](=O)[O-])c12 , readout=growth inhibition) returns 21.4

get_value(item= CCOC(=O)c1[nH]c(C#N)c(C(=O)OCC)c1C , readout=growth inhibition) returns 10

get_value(item= Nc1nc2ncc(CNc3ccc(C(=O)NC(CCC(=O)NC(CCC(=O)NC(CCC(=O)NC(CCC(=O)NC(CCC(=O)O)C(=O)O)C(=O)O)C(=O)O)C(=O)O)C(=O)O)cc3)nc2c(=O)[nH]1 (stereo unspecified) , readout=growth inhibition) returns 8.35

get_value(item= COC1CC(C)C(OC)c2cc(O)cc(c2O)NC(=O)/C(C)=C/C=C\C(C)C(OC(N)=O)/C(C)=C\C(C)C1OC (stereo unspecified) , readout=growth inhibition) returns 90

get_value(item= CN1CCc2cc3c(c4c2C1C(O)c1ccccc1-4)OCO3 (stereo unspecified) , readout=growth inhibition) returns 15

get_value(item= COc1cc(N(CCC#N)CCC#N)ccc1/C(N=Nc1ccc([N+](=O)[O-])cc1)=N/NC(=O)c1cc(Br)ccc1O , readout=growth inhibition) returns 46.1

====

# ASSAY TEXT: NCI Yeast Anticancer Drug Screen. Data for the rad50 strain (AID 155);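 also: 0% = growth of vehicle-only cultures of the same strain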
# APPLIED CONDITIONS: S. cerevisiae rad50 strain growth inhibition; at 5.0 µM (retest, dose inferred, filed as 0.5); hits give high values
The panel holds about 79,000 compounds, 15% with a hit somewhere; the sample as a whole holds those more often.
MEASUREMENT TYPE: growth inhibition (%)
Expressed in %, but write only the number.

get_value(item= Oc1ccc(Cc2cccc(Cl)c2)c(O)c1 , readout=growth inhibition) returns -1

get_value(item= CCCCCCN(CCCCCC)CCCCCCCCCCCO , readout=growth inhibition) returns 15

get_value(item= CC1(C)OCC(COC(c2ccccc2)(c2ccccc2)c2ccccc2)O1 (stereo not drawn) , readout=growth inhibition) returns -7

get_value(item= O=C(/C=C/C(Cl)(Cl)Cl)Nc1ccc(Cl)cc1 , readout=growth inhibition) returns -6

get_value(item= Oc1ccccc1N=Cc1ccccc1 , readout=growth inhibition) returns 23

get_value(item= CC(O)C(O)C(O)C(O)C(O)C(=O)NNc1ccccc1 (stereo not drawn) , readout=growth inhibition) returns 9

get_value(item= CC(=O)C1Cc2ccccc2C1=O (stereo not drawn) , readout=growth inhibition) returns 4

get_value(item= CN(C)CC(C)(CN(C)C)C(=O)/C=C/c1c(Cl)cccc1Cl , readout=growth inhibition) returns 5

get_value(item= c1csc(-c2[nH]nc3c2CCc2ccccc2-3)c1 , readout=growth inhibition) returns 19

get_value(item= CN(C)c1ccc(/C=C/c2cc[n+](C)c(/C=C/c3ccc(N(C)C)cc3)c2)cc1 , readout=growth inhibition) returns 98

get_value(item= CNc1ncnc2nc(C)[nH]c12 , readout=growth inhibition) returns 0

get_value(item= CC1(c2ccc(O)cc2)CCC(C(C)(C)c2ccc(O)cc2)CC1 (stereo not drawn) , readout=growth inhibition) returns 41

get_value(item= C/C(=N\NC(=S)N1CCC1)c1ccccn1 , readout=growth inhibition) returns 91

====

# ASSAY TEXT: NCI Yeast Anticancer Drug Screen. Data for the sgs1 mgt1 strain (AID 161);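 also: 0% = growth of cultures given vehicle only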
# APPLIED CONDITIONS: S. cerevisiae sgs1 mgt1 strain, at 5.0 µM (retest, dose inferred, filed as 0.5)
About 79,000 compounds went through this panel and 15% of them were active in at least one assay; those are over-represented in the sample as a whole. The source made the active and inactive calls. Cut-off read from the data, not from the text of the source: active = growth inhibition above about 70%; inactive = the rest.
Choose one outcome from this list and give only that: active, inactive

Prompt line: Called result for Nc1cccc2c1-c1ccccc1C2=O
Response line: inactive

Prompt line: Called result for CCC(C)(O)Cc1ccc(Cl)cc1 (stereo unspecified)
Response line: inactive

Prompt line: Called result for Cn1c(-c2ccccc2)c(/C=C/C2=[N+](C)c3ccccc3C2(C)C)c2ccccc21
Response line: active

Prompt line: Called result for CC(C)c1cc([N+](=O)[O-])c(O)c([N+](=O)[O-])c1
Response line: inactive

Prompt line: Called result for Oc1ccc2ccccc2c1N=Nc1ccccn1
Response line: inactive

Prompt line: Called result for COc1cc(NCc2ccc3nc(N)nc(N)c3c2C)cc(OC)c1OC (tested in a mixture with another compound)
Response line: inactive

Prompt line: Called result for O=[N+]([O-])c1ccc(C(Br)c2ccc([N+](=O)[O-])cc2)cc1
Response line: inactive

Prompt line: Called result for C1CCC(CCCc2nn[nH]n2)CC1
Response line: inactive

Prompt line: Called result for Cc1nnc(N/N=C/c2ccc([N+](=O)[O-])o2)[nH]c1=O
Response line: inactive

Prompt line: Called result for c1ccc(-c2cccc(-c3ccccn3)n2)nc1
Response line: active

Prompt line: Called result for CCCOC(=O)c1nc(N(CC2CCCCC2)C(=O)NC)sc1/N=C/c1ccccc1
Response line: inactive

====

Field: growth inhibition. Provide a value for each of the compounds that follow.
# ASSAY TEXT: NCI Yeast Anticancer Drug Screen. Data for the mec2-1 strain (AID 157)
# APPLIED CONDITIONS: S. cerevisiae mec2-1 strain, at 50.0 µM, hits give high values
This is part of a sample that, as a whole, favours compounds with a hit. Of some 79,000 tested, about 15% had one in any assay.
Expressed in %, but write only the number.

get_value(item= CCCCCC[C@@H](O)C/C=C\CCCCCCCC(=O)OCCOC , readout=growth inhibition) returns 5.4

get_value(item= O=[N+]([O-])c1ccc([I+]c2ccccc2)cc1 , readout=growth inhibition) returns 86

get_value(item= CCOC(=O)COc1cc(-c2ccccc2F)nc2cc3c(cc12)OCO3 , readout=growth inhibition) returns 15.1

get_value(item= CCN(CC)CCNC(Cc1ccccc1)c1ccc(OCc2ccccc2)cc1 (centres undefined) , readout=growth inhibition) returns 42.4

get_value(item= CC1(C)OCC(COC(c2ccccc2)(c2ccccc2)c2ccccc2)O1 (centres undefined) , readout=growth inhibition) returns 4.65

get_value(item= COC(=O)c1ccc(Cl)c(NN)c1 , readout=growth inhibition) returns 92.8

get_value(item= NC(=S)Nc1ccc2c(c1)Cc1ccccc1-2 , readout=growth inhibition) returns -0.4

get_value(item= CN(C)c1ccc(C(=C2C=CC(=[N+](C)C)C=C2)c2ccc(N(C)C)cc2)cc1 , readout=growth inhibition) returns 95

get_value(item= Cc1ccccc1NC(=O)Cc1csc2[n+]1C(=O)/C(=C/c1ccc([N+](=O)[O-])cc1)S2 , readout=growth inhibition) returns -6.7

get_value(item= CCCCN(CCCC)CCCCCCCCCCO , readout=growth inhibition) returns 36.2

get_value(item= O=C(CCc1ccccc1)ON1C(=S)NC(c2ccccc2)(c2ccccc2)C1=S , readout=growth inhibition) returns 55.7

get_value(item= S=C1SCN(Cc2cccs2)CN1Cc1cccs1 , readout=growth inhibition) returns 71.5

get_value(item= CCCOS(=O)(=O)c1ccccc1 , readout=growth inhibition) returns 12.3

get_value(item= O=[N+]([O-])c1ccc(Oc2ccccc2Cl)c([N+](=O)[O-])c1 , readout=growth inhibition) returns 38.1

get_value(item= CN(C)CC(C)(CN(C)C)C(=O)/C=C/c1c(Cl)cccc1Cl , readout=growth inhibition) returns 93.7

get_value(item= OC(c1cc(-c2ccc(Cl)cc2)nc2c(Cl)cccc12)C1CCCCN1 (centres undefined) , readout=growth inhibition) returns 99.8

get_value(item= CN(C)c1ccc2cc3c(cc2c1)Oc1ccccc1N3.[Cl][Zn][Cl] , readout=growth inhibition) returns 85

get_value(item= CN1CSC(=S)N(Cc2ccccc2)C1 , readout=growth inhibition) returns 87.8

get_value(item= CC(C)c1ccc(Nc2n[nH]c(=S)s2)cc1 , readout=growth inhibition) returns 83

get_value(item= O=C(O)CCCOc1cc(-c2ccccc2F)nc2cc3c(cc12)OCO3 , readout=growth inhibition) returns 80.8

get_value(item= COc1ccc2c(c1OC)OCC(CN(C)C)C2=O (centres undefined) , readout=growth inhibition) returns 99.3

get_value(item= CCC(C)C(N)C(=O)NC(CC(N)=O)C(=O)NC(CC(C)C)C(=O)NC(CCCCN)C(=O)NC(C)C(=O)NC(CC(C)C)C(=O)NC(C)C(=O)NC(C)C(=O)NC(CC(C)C)C(=O)NC(C)C(=O)NC(CCCCN)C(=O)NC(CCCCN)C(=O)NC(C(=O)NC(CC(C)C)C(N)=O)C(C)CC (centres undefined) , readout=growth inhibition) returns 94.2

get_value(item= C1=C(c2ccccc2)c2ccccc2C1 , readout=growth inhibition) returns 63.4

get_value(item= Cc1cc(N/N=C/c2ccccn2)nc2ccccc12 , readout=growth inhibition) returns 92.3

get_value(item= Cc1cc(C(=C2C=CC(=Nc3ccccc3)C=C2)c2ccc(Nc3ccccc3)cc2)ccc1N , readout=growth inhibition) returns 88.4

get_value(item= CN=C(N)N/N=C(\C)c1ccc2c(c1)Cc1ccccc1-2 , readout=growth inhibition) returns 59.9

get_value(item= CN(C)c1ccc(/C=C/c2cc[n+](C)c(/C=C/c3ccc(N(C)C)cc3)c2)cc1 , readout=growth inhibition) returns 93.3

get_value(item= CCCCC(C=O)(C=C=C(C)C)CC (centres undefined) , readout=growth inhibition) returns 52.1

get_value(item= Cc1nnc(N/N=C/c2ccc([N+](=O)[O-])o2)[nH]c1=O , readout=growth inhibition) returns 65.2

get_value(item= CN(C)CCSC1=Nc2ccc(Cl)cc2C(c2ccccc2Cl)N(C)C1 (centres undefined) , readout=growth inhibition) returns 95.7

get_value(item= c1ccc(-c2cc3cc4ccccc4cn3c2)cc1 , readout=growth inhibition) returns 83.8

get_value(item= O=C1CCC2(C=C(Br)C(=O)C(Br)=C2)O1 , readout=growth inhibition) returns 93.5

get_value(item= Cc1cc(C(N)=O)cc(C)c1C(=O)OCCCl , readout=growth inhibition) returns 66.4

get_value(item= O=C1C=CC(=O)N1c1cc(Cl)c(Cl)cc1Cl , readout=growth inhibition) returns 27.1

get_value(item= NC(=S)N/N=C\c1nccc2c(C(F)(F)F)cccc12 , readout=growth inhibition) returns 91.4

get_value(item= CC/C(=C(/CC)c1ccc(O)cc1)c1ccc(O)cc1 , readout=growth inhibition) returns 98.8

get_value(item= Cc1cc2nc(CC(=O)c3ccncc3)c(=O)[nH]c2cc1C , readout=growth inhibition) returns 11.7

get_value(item= c1csc(-c2[nH]nc3c2CCc2ccccc2-3)c1 , readout=growth inhibition) returns 96.6

get_value(item= Cc1ccccc1N=C(N)Nc1ccccc1C (tested in a mixture with another compound) , readout=growth inhibition) returns 27.8

get_value(item= CCOC(=O)C1=NN(c2ccccc2)C(=O)/C1=C\N1C(=O)/C(=C/c2cccc(O)c2)SC1=S , readout=growth inhibition) returns 1.9

get_value(item= [Cl-].[Rh+3].c1ccc(-c2ccnc3c2ccc2c(-c4ccccc4)ccnc23)cc1.c1ccc(-c2ccnc3c2ccc2c(-c4ccccc4)ccnc23)cc1.c1ccc(-c2ccnc3c2ccc2c(-c4ccccc4)ccnc23)cc1 , readout=growth inhibition) returns 88.9

get_value(item= CCCCCCCCCCCCCCCc1ccc(C(=O)C[n+]2ccccc2)cc1 , readout=growth inhibition) returns 89.7

get_value(item= N#Cc1c2ccccc2nc2ccccc12 , readout=growth inhibition) returns 16.9

get_value(item= Cc1cc(C(=O)c2ccc(Cl)cc2)ccc1O , readout=growth inhibition) returns 57.5
